Values compiled from ChEMBL document CHEMBL4007398.

System: Influenza A virus (H1N1)
run description: Antiviral activity against influenza A virus H1N1-pdm09 infected in MDCK cells assessed as reduction of virus-induced cytopathic effect after 48 hrs by CellTiter-Glo luminescent assay
Type: functional, cell-based
quantity kind: EC50
Quote the value and follow it with the unit of measurement.

Kindly note: Influenza A virus (H1N1), `C[C@@H](N1CN([C@H]2c3ccccc3CSc3ccccc32)n2ccc(=O)c(O)c2C1=O)C(F)(F)F` , EC50 value reported: 7 nM

* * *

run description: Cytotoxicity against MDCK cells after 48 hrs by MTT assay
Format: cell-based, Canis lupus familiaris
condition info: dog
quantity kind: CC50 at 48 h (µM)
Kindly provide the numeric value in µM only, without the unit symbol.

The molecule O=C(O[C@@H]1Cc2c(O)cc(O)cc2O[C@@H]1c1ccc(O)c(O)c1)c1cc(O)c(O)c(O)c1 [EPICATECHIN GALLATE] showed CC50 at 48 h equal to 526

Consider now this further molecule.
The molecule O=C(O[C@@H]1Cc2c(O)cc(O)cc2O[C@@H]1c1cc(O)c(O)c(O)c1)c1cc(O)c(O)c(O)c1 [EPIGALOCATECHIN GALLATE] showed CC50 at 48 h equal to 275

* * *

run description: Cytotoxicity against HEK293 cells assessed as reduction in cell viability by MTS assay
Format: cell-based
condition info: human
quantity kind: CC50

The compound `NC(=S)N/N=C/c1cccc(O)c1O` showed CC50 equal to > 200 µM

Further cases:
The compound `NC(=O)N/N=C/c1cccc(O)c1O` showed CC50 equal to > 200 µM

* * *

Test system: Influenza A virus
run description: Antiviral activity against influenza A virus infected in HEK293 cells after 24 hrs by firefly luciferase reporter gene based vRNP-reconstitution assay
Format: functional, cell-based
condition info: HEK293, 24 h
quantity kind: pEC50
Scale: negative log10 of molar concentration, which is what pEC50 denotes.

The compound `O=C(N/N=C/c1cc(O)c(O)c(O)c1)c1cc(O)c(O)c(O)c1` showed pEC50 equal to 5.51

* * *

run description: Cytotoxicity against HEK293 cells assessed as reduction in cell viability after 24 hrs by MTS assay
Type: cell-based
condition info: human
quantity kind: CC50 at 24 h

The molecule `O=C(N/N=C/c1cc(O)c(O)c(O)c1)c1cc(O)c(O)c(O)c1` showed CC50 at 24 h equal to > 200 µM

* * *

run description: Cytotoxicity against MDCK cells assessed as reduction in cell viability after 48 hrs in serum free conditions by CellTiter-Glo luminescent assay
Format: cell-based, Canis lupus familiaris
condition info: dog
quantity kind: CC50 at 48 h (µM)
Kindly provide the numeric value in µM only, without the unit symbol.

The molecule `C[C@@H](N1CN([C@H]2c3ccccc3CSc3ccccc32)n2ccc(=O)c(O)c2C1=O)C(F)(F)F` showed CC50 at 48 h equal to 11.9

* * *

run description: Cytotoxicity against MDCK cells assessed as reduction in cell viability after 48 hrs in presence of 5 % serum by CellTiter-Glo luminescent assay
Type: cell-based, Canis lupus familiaris
condition info: dog
quantity kind: CC50 at 48 h (µM)
Kindly provide the numeric value in µM only, without the unit symbol.

The molecule `C[C@@H](N1CN([C@H]2c3ccccc3CSc3ccccc32)n2ccc(=O)c(O)c2C1=O)C(F)(F)F` showed CC50 at 48 h equal to 86.2

* * *

run description: Cytotoxicity against MDCK cells by MTT assay
Type: cell-based, Canis lupus familiaris
condition info: dog
quantity kind: CC50

The compound `O=C1Nc2ccccc2/C1=N\N=C1/C/C(=C2\C(=O)Nc3ccccc32)C(=O)N1` showed CC50 equal to > 400 µM

Consider now this further compound.
The compound `CN(C)c1ccc(/C=C2\C/C(=N\N=C3\C(=O)Nc4ccccc43)NC2=O)cc1` showed CC50 equal to > 300 µM

* * *

test target: Polymerase acidic protein (Influenza A virus (A/Puerto Rico/8/1934(H1N1)), UniProt P03433)
quantity kind: IC50

Kindly note: Polymerase acidic protein (Influenza A virus (A/Puerto Rico/8/1934(H1N1)), UniProt P03433), `CC(C)/C=C1\N=C(CC(C)C)C(=O)N(O)C1=O` , IC50 value reported: 5.1 to 5.5 µM
